The values you see were collected from ChEMBL document CHEMBL3297709.

These records show pKi for Alpha-1B adrenergic receptor (Homo sapiens, UniProt P35368).
pKi: −log10 of the molar value.
QUANTITY_KIND: pKi

Known pKi results, listed for orientation:
COc1ccccc1N1CCN(CCn2c(C)nc3c(sc4ccc(NC(=O)Cc5ccccc5)cc43)c2=O)CC1; 7.52
COc1ccccc1N1CCN(CCn2c(C)nc3c(sc4ccc(NC(=O)CCCNC(=O)Cc5ccccc5)cc43)c2=O)CC1; 8.12
COc1ccccc1N1CCN(CCn2c(C)nc3c(sc4ccc(NC(=O)CCCC(=O)NCCc5ccccc5)cc43)c2=O)CC1; 8.19
COc1ccccc1N1CCN(CCn2c(=O)[nH]c3c(sc4ccc(NC(=O)Cc5ccccc5)cc43)c2=O)CC1; 7.55
COc1ccccc1N1CCN(CCn2c(=O)[nH]c3c(sc4ccc(NC(=O)CCCC(=O)NCCc5ccccc5)cc43)c2=O)CC1; 8.19

a. COc1ccccc1N1CCN(CCn2c(=O)[nH]c3c(sc4ccc(NC(=O)CCCN(C)C)cc43)c2=O)CC1
b. COc1ccccc1N1CCN(CCn2c(C)nc3c(sc4ccc(NC(=O)CCCC(=O)NCc5ccccc5)cc43)c2=O)CC1
c. COc1ccccc1N1CCN(CCn2c(=O)[nH]c3c(sc4ccc(NC(=O)CCCN(C)Cc5ccccc5)cc43)c2=O)CC1
d. COc1ccccc1N1CCN(CCn2c(=O)[nH]c3c(sc4ccc(NC(=O)CCCCc5ccccc5)cc43)c2=O)CC1
e. COc1ccccc1N1CCN(CCn2c(=O)[nH]c3c(sc4ccc(NC(=O)CCCC(=O)NCc5ccccc5)cc43)c2=O)CC1
Task field, ranking: reported pKi, descending order. Output the labels ranked as instructed.
e, a, c, b, d
(e: 9.08, a: 8.78, c: 8.13, b: 7.72, d: 7.44)

---

Sequence of the target: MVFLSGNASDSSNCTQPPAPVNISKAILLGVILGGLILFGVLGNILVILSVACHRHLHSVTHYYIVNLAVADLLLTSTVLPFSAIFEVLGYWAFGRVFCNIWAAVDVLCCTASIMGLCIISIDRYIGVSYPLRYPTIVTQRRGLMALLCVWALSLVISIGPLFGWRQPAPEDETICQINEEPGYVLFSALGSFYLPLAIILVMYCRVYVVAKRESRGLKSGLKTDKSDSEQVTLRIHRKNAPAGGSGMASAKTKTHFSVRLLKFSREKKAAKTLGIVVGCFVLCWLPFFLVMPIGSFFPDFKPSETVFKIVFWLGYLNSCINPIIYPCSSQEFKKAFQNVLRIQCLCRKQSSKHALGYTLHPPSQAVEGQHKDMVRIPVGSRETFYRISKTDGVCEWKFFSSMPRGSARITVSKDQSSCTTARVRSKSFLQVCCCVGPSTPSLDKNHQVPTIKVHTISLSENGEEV
pKi: −log10 of the molar value.
QUANTITY_KIND: pKi

Known pKi results, listed for orientation:
COc1ccccc1N1CCN(CCn2c(=O)[nH]c3c(sc4ccc(NC(=O)Cc5ccccc5)cc43)c2=O)CC1; 8.83
COc1ccccc1N1CCN(CCn2c(=O)[nH]c3c(sc4ccc(NC(=O)CCCc5ccccc5)cc43)c2=O)CC1; 8.15
COc1ccccc1N1CCN(CCn2c(C)nc3c(sc4ccc(NC(=O)Cc5ccccc5)cc43)c2=O)CC1; 8.47

a. COc1ccccc1N1CCN(CCn2c(C)nc3c(sc4ccc(NC(=O)CCCC(=O)NCc5ccccc5)cc43)c2=O)CC1
b. COc1ccccc1N1CCN(CCn2c(=O)[nH]c3c(sc4ccc(NC(=O)CCCC(=O)NCc5ccccc5)cc43)c2=O)CC1
// which entry reports the smaller pKi, a or b ? Answer by stating the label of the chosen item.
a
(a: 8.45, b: 9.49)

---

Sequence of the target: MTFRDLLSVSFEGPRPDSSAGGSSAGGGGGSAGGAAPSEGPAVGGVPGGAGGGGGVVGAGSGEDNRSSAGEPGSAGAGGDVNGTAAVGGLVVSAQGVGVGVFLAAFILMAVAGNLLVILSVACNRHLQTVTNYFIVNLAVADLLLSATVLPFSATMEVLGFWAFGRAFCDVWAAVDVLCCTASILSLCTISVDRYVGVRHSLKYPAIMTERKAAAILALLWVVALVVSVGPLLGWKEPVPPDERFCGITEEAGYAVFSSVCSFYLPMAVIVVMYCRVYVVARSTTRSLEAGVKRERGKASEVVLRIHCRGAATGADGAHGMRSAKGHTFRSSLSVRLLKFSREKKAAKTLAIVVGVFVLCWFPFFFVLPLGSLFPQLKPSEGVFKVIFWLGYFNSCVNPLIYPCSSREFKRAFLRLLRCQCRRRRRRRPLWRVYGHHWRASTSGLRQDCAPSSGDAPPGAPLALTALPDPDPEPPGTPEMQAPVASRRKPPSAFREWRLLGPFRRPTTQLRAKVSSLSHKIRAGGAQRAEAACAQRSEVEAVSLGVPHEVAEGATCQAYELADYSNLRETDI
QUANTITY_KIND: Ki (nM)

COc1ccccc1N1CCN(CCn2c(C)nc3c(sc4ccc(NC(=O)Cc5ccccc5)cc43)c2=O)CC1; 3.31

I. COc1ccccc1N1CCN(CCn2c(=O)[nH]c3c(sc4ccc(NC(=O)CCCN(C)Cc5ccccc5)cc43)c2=O)CC1
II. COc1ccccc1N1CCN(CCn2c(=O)[nH]c3c(sc4ccc(NC(=O)Cc5ccccc5)cc43)c2=O)CC1
// which entry reports the smaller Ki, I or II ? Answer by stating the label of the chosen item.
II
(II: 0.912 nM, I: 4.07 nM)
